Hey, just so you know, these numbers are from paper PMC6553790.

- Tested on: P. falciparum Cam3.II lines
- PROCEDURE_SUMMARY: Isobologram analyses (fixed-ratio drug combinations)
- Assay type: cell-based, Plasmodium falciparum
- MEASUREMENT_SETUP: combined with WLL; Rings, 3 hr exposure; Cam3.II K13WT
Examples of molecules with documented Mean of the sums of FIC50 (mean ΣFIC50) follow.
OUTCOME_MEASURE: Mean of the sums of FIC50 (mean ΣFIC50)

molecule="C[C@H]1[C@@H](O)O[C@@H]2O[C@@]3(C)CC[C@H]4[C@H](C)CC[C@@H]1[C@@]24OO3 [DHA, dihydroartemisinin]" target="P. falciparum Cam3.II lines" experimental_result=0.69
molecule=C=CC(=O)N1C/C(=C\c2ccc([N+](=O)[O-])cc2)C(=O)/C(=C/c2ccc([N+](=O)[O-])cc2)C1 target="P. falciparum Cam3.II lines" experimental_result=0.80
molecule=CN(C)c1ccc2nc3ccc(=[N+](C)C)cc-3sc2c1 target="P. falciparum Cam3.II lines" experimental_result=0.87
molecule="CCN(CC)CCCC(C)Nc1ccnc2cc(Cl)ccc12 (stereo not shown)" target="P. falciparum Cam3.II lines" experimental_result=1.69
